Would you mind telling me the reported pKi of each entry?
# target of assay: Acetylcholine receptor (Torpedo californica, UniProt P02710+P02712+P02714+P02718)
# Sequence (P02710 whole entry): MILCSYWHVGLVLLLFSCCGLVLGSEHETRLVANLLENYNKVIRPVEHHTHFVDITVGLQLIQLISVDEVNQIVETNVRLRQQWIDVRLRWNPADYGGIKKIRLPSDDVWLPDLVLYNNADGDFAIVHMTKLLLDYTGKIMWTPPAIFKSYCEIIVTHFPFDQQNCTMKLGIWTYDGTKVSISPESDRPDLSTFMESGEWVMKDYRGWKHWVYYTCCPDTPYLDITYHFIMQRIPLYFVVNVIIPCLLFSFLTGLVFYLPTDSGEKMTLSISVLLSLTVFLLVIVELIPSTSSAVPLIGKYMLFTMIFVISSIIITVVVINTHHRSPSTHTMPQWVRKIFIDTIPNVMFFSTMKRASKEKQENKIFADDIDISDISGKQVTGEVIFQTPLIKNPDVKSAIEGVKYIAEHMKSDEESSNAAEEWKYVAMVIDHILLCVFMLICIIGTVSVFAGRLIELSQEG
# Sequence (P02712 whole entry): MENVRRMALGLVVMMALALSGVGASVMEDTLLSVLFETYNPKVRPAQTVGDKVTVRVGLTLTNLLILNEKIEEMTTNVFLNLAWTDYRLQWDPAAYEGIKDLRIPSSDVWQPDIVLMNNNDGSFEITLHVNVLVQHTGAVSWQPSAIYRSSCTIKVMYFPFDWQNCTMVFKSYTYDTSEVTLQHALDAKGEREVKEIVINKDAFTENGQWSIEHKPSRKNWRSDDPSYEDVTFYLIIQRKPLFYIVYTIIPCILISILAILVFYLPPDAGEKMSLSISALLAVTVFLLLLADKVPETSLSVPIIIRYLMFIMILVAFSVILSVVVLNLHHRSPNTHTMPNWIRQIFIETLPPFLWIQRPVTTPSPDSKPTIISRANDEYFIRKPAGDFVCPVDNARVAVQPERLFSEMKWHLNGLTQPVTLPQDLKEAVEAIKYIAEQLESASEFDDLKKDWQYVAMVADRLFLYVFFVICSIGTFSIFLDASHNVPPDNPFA
# Sequence (P02718 whole entry): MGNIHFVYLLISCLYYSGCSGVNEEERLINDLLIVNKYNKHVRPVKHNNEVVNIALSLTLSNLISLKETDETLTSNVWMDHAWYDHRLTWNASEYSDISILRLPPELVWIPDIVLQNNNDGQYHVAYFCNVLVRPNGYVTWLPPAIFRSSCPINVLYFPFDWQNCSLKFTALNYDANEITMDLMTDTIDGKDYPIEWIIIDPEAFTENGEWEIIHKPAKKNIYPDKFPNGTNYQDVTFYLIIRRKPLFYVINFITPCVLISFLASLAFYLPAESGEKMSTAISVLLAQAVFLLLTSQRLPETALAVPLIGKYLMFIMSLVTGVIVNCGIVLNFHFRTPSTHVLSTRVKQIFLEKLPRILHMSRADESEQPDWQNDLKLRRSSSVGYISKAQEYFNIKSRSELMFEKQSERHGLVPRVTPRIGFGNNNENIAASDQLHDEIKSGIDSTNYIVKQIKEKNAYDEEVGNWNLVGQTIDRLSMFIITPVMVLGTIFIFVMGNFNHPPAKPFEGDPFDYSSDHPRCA
# Sequence (P02714 whole entry): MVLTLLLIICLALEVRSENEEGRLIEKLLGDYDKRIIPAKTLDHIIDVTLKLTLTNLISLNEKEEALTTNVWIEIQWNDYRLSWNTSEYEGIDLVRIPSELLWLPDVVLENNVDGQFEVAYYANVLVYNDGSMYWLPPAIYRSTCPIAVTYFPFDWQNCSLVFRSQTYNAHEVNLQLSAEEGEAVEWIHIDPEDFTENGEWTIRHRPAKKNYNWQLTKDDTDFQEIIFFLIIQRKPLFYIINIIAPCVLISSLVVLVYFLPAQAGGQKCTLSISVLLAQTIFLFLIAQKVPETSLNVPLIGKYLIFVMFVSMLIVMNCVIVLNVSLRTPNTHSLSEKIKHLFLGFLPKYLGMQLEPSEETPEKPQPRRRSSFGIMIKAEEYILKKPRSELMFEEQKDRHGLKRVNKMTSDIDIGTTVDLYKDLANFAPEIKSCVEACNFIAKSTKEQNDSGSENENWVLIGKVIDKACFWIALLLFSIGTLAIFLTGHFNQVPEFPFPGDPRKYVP
# assay method text: Compound was evaluated for inhibition of [3H]TCP binding to Nicotinic acetylcholine receptor of Torpedo californica
// pKi is dimensionless: -log10 of concentration (M)

Reported pKi, compound C[C@H](O)CCCCC[C@@H]1CC[C@H]2CC[C@H](C)N12 : ____
2.48

Reported pKi, compound CCCCCCC[C@@H]1CC[C@H]2CC[C@H](C)N12 : ____
4.30

Reported pKi, compound C[C@@H](O)CCCCC[C@@H]1CC[C@H]2CC[C@H](C)N12 : ____
2.08

Reported pKi, compound CCC[C@H]1CC[C@@H]2CC[C@@H](CCCCC[C@@H](C)O)N21 : ____
2.51

Reported pKi, compound CCC[C@H]1CC[C@@H]2CC[C@@H](CCCCC[C@H](C)O)N21 : ____
2.51

Reported pKi, compound CCCC[C@@H]1CCCC2CC[C@@H](CCCC)N21 (stereo partly drawn) : ____
3.38

Reported pKi, compound CCCC[C@H]1CCCC2CC[C@@H](CCCC)N21 (stereo partly drawn) : ____
3.43

Reported pKi, compound CCC[C@H]1CC[C@@H]2CC[C@@H](CCCCCC(C)=O)N21 : ____
3.08

Where these numbers come from: ChEMBL document CHEMBL1132916
